- Test system: WNK2;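 note: KINOMEscan kinase panel screen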
- conditions: concentration: 1 μM, replicates: in singlicate; n = 1
Label 1 when %Inh is at or above 2%; otherwise label -1.

# example entries with known answers
- smilesStr: "CN(C)S(=O)(=O)c1cc(-c2ccc3nccc(-c4cccc(S(N)(=O)=O)c4)c3c2)cnc1N"
  category: -1
- smilesStr: "CCn1c(-c2nonc2N)nc2c(C#CC(C)(C)O)nc(OC[C@H](N)c3ccccc3)cc21"
  category: -1
- smilesStr: "COc1cc(Nc2nccc(-c3c(-c4cccc(NC(=O)c5c(F)cccc5F)c4)nn4ncccc34)n2)cc(OC)c1OC"
  category: -1
- smilesStr: "Cc1ccc(F)c(C(=O)Nc2cccc(-c3nn4ccccc4c3-c3ccnc(Nc4cccc(F)c4)n3)c2)c1F"
  category: 1
- smilesStr: "CN(c1ccc(NC(=O)Nc2cc(C(F)(F)F)ccc2F)cc1)c1ccnc(Nc2ccc(S(N)(=O)=O)cc2)n1"
  category: -1
- smilesStr: "CCn1c(-c2nonc2N)nc2c(C#CC(C)(C)O)ncc(OCCCCN)c21.O=C(O)C(F)(F)F.O=C(O)C(F)(F)F"
  category: -1

## Task Decide: %Inh of CN1CCN(Cc2cccc(-c3ccc4c(Nc5ccc(Oc6ccccc6)cc5)ccnc4c3)c2)CC1 >= 2%?
## Result 1

## Task State whether the measured %Inh reaches 2%, counting equality as reaching it, for c1ccc(Oc2ccc(Nc3ccnc4cc(-c5ccc(CNCCN6CCOCC6)o5)ccc34)cc2)nc1
## Result 1

## Task Does the reported %Inh for Cc1cccc(NC(=O)Nc2ccc(Oc3ncnc4ccn(C)c34)cc2)c1 fall at or above the 2% mark?
## Result -1

## Task Reported %Inh at or above 2%? COc1cc2c(cc1OCCN1CCNCC1)ncc1c3ccc(C#N)cc3[nH]c21
## Result 1

## Task In plain terms: is recorded %Inh at least 2% for CCS(=O)(=O)c1ccc(OC)c(Nc2nccc(-c3c(-c4cccc(NC(=O)c5c(F)cccc5F)c4)nn4ncccc34)n2)c1 ?
## Result 1

## Task Form field: %Inh at least 2%? Entry: Cc1cccc(Nc2nc(N[C@H]3CCNC3)ncc2C(N)=O)c1.Cl
## Result -1

## Task Confirm if %Inh reported for the compound O=C(Nc1cccc(Oc2ccc3nc(NC(=O)C4CC4)cn3n2)c1)c1ccccc1C(F)(F)F is 2% or above.
## Result -1

## Task Test whether the compound O=c1[nH]cc(-c2ccc(N3CCOCC3)cc2)c2sc(-c3cn[nH]c3)cc12 records %Inh of 2% or higher.
## Result -1

## Task Please check the record COCCOCCOc1cc2ncc3c4ccc(C#N)cc4[nH]c3c2cc1OC and state if its %Inh is at or above 2%.
## Result -1
